# experimentNotes: logP determination by HPLC on a reversed-phase column (C 18), EEC Directive 79/831 Annex V.A8
# Format: physicochemical
# experimentalSetup: method marker [b]; isomer A / isomer B / isomer mixture as noted in the cell

molecule | logP
C=C(CON=C(C)c1cccs1)CON=C(C)c1nccs1 [compound 78] | 4.31^[b]
CC(=NOCCON=C(C)c1cc(C)ccn1)c1cc(C)ccn1 [compound 34] | 1.71^[b]
C=C(CON=C(C)c1cccc(C)n1)CON=C(CC(C)C)c1ncccc1C (single isomer, unassigned) [compound 155] | 4.40^[b] (isomer A)
CC(=NOCC(=O)ON=C(C)c1cccc(C)n1)c1cccc(C)n1 [compound 158] | 2.57^b]
C=C(CON=C(C)c1cccc(C)n1)CON=C(C)c1cccc(Br)n1 [Compound 206] | 4.98^[b]
C=C(CON=C(C)c1cccc(C)n1)CON=C(C)c1nc(C)cc(OC)n1 (single isomer, unassigned) [Compound 177] | 3.08^[b] (isomer A)
C=C(CON=C(C)c1ccc(Cl)nc1)CON=C(C)c1cccc(C)n1 [compound 201] | 3.94^[b]
Cc1cccc(C(=NOCC(C)CON=C(c2cccc(C)n2)C(F)(F)F)C(F)(F)F)n1 (centres unmarked) [compound 214] | 4.83^[b]

====

# experimentNotes: logP determination by HPLC on a reversed-phase column (C 18), EEC Directive 79/831 Annex V.A8
# Format: physicochemical
# experimentalSetup: method marker [a] (footnote not shown); isomer A / isomer B / isomer mixture as noted in the cell
# Method: The stated logP values were determined in accordance with EEC Directive 79/831 Annex V.A8 by HPLC (high performance liquid chromatography) on a reversed-phase column (C 18). Temperature: 43° C.

compound | logP
CC(=NOCC(C)CON=C(C)c1ccnc(C)n1)c1ccnc(C)n1 (stereo not shown) | 3.57^a]
CC(=NOCC(C)CON=C(C)c1cc(C(C)(C)C)ccn1)c1cc(C(C)(C)C)ccn1 (stereo not shown) | 5.88^[a]
C=C(CON=C(CCC)c1cccc(C)n1)CON=C(CCC)c1cccc(C)n1 (mixture of isomers) | 6.27^[a]
CCCc1cccc(C(C)=NOCC(C)CON=C(C)c2cccc(CCC)n2)n1 (stereo not shown) | 7.36^[a]
CC(=NOCC(F)(F)CON=C(C)c1cccc(C)n1)c1cccc(C)n1 | 4.00^[a]
Cc1cccc(C(=NOCCCON=C(c2cccc(C)n2)C2CC2)C2CC2)n1 (mixture of isomers) | 2.85^[a]
CCC(=NOCCCON=C(CC)c1ccc(C)c(C)n1)c1ccc(C)c(C)n1 (mixture of isomers) | 3.80^[a]
Cc1cccnc1C(CC(C)C)=NOCC(C)CON=C(CC(C)C)c1ncccc1C (single isomer, unassigned) [compound 110] | 5.78^[a] (isomer A)
CCC(=NOCC(C)CON=C(CC)c1ccc(C)c(C)n1)c1ccc(C)c(C)n1 (stereo not shown) | 4.88^[a]
CCCC(=NOCCON=C(CCC)c1cccc(C)n1)c1cccc(C)n1 | 5.18^[a]
CC(=NOCCCON=C(C)c1cccc(CC(C)C)n1)c1cccc(CC(C)C)n1 | 7.36^[a]
Cc1ccc(C(=NOCCCON=C(c2ccc(C)c(C)n2)C(C)C)C(C)C)nc1C (mixture of isomers) [compound 238] | 4.94^[a]
CC(=NOCC(C)(O)CON=C(C)c1cccc(C)n1)c1cccc(C)n1 (stereo not shown) | 1.66^[a]
CC(=NOCCCON=C(C)c1ncccc1C)c1ncccc1C (single isomer, unassigned) [compound 85] | 2.15^[a] (isomer A)
CCC(=NOCC(C)CON=C(CC)c1ncccc1C)c1ncccc1C (single isomer, unassigned) [compound 101] | 4.23^[a] (isomer B)
CCCC(=NOCC(C)CON=C(CCC)c1cccc(C)n1)c1cccc(C)n1 (stereo not shown) | 6.61^[a]

====

# experimentNotes: logP determination by HPLC on a reversed-phase column (C 18), EEC Directive 79/831 Annex V.A8
# Assay type: physicochemical
# experimentalSetup: method marked [b] in Table 1
Listing of entries alongside the reported logP.

molecule | logP
CC(=NOCC(C)CON=C(C)c1cccc(-c2cccc(C)n2)n1)c1cccc(-c2cccc(C)n2)n1 (stereo not shown) [compound 551] | 6.24^[b]
CC(=NOC(C)C(C)C(C)ON=C(C)c1cccc(C)n1)c1cccc(C)n1 (mixture of isomers) [Compound 743] | 4.90^[b]
Cc1cc(C)cc(/C(N)=N/OCc2ccccc2CO/N=C(\N)c2cc(C)cc(C)c2)c1 [compound 710] | 3.68^[b]
CCCC1=NOC(CON=C(C)c2cc(C)cc(C)n2)(CON=C(C)c2cc(C)cc(C)n2)C1 (stereo not shown) [compound 640] | 2.20^[b]

====

# experimentNotes: logP determination by HPLC on a reversed-phase column (C 18), EEC Directive 79/831 Annex V.A8
# Assay type: physicochemical
# experimentalSetup: value marked [b]
# Description: The stated logP values were determined in accordance with EEC Directive 79/831 Annex V.A8 by HPLC (high performance liquid chromatography) on a reversed-phase column (C 18). Temperature: 43° C.

compound | logP
CCC(=NOCCCCON=C(C)c1cccc(C)n1)c1ncccc1C (single isomer, unassigned) [compound 529] | 2.98^[b] (isomer )A
CC(=NOCC(C)(C)CON=C(c1ccccc1)c1cccc(C)n1)c1cccc(C)n1 (mixture of isomers) [Compound 880] | 4.72^[b]
CC(=NOCC(C)(C)CON=C(C)c1ncccc1C)c1cccc(C)n1 | 3.89^[b]
CC(=NOCC1(CON=C(C)c2ccc(C)c(C)n2)CCCCC1)c1ccc(C)c(C)n1 | 5.34^[b]

====

Measured logP values are reported for all entries that follow.
# experimentNotes: logP determination by HPLC on a reversed-phase column (C 18), EEC Directive 79/831 Annex V.A8
# Format: physicochemical
# experimentalSetup: value marked [a]

molecule | logP
CC(=O)OCC#Cc1cc(C)nc(C(C)=NOCC(C)CON=C(C)c2cc(C#CCOC(C)=O)cc(C)n2)c1 (stereo not drawn) | 6.25^[a]
CCCC(=NOCC(C)CON=C(CCC)c1ccc(C)c(C)n1)c1ccc(C)c(C)n1 (stereo not drawn) | 6.26^[a]
CCOC(=O)c1cccc(C(C)=NOCC(C)CON=C(C)c2cccc(C(=O)OCC)n2)n1 (stereo not drawn) | 5.03^[a]
C=C(CON=C(c1cccc(C)n1)C(C)C)CON=C(c1cccc(C)n1)C(C)C (single isomer, unassigned) [compound 275] | 4.90^[a] (isomer A)
COc1cc(C)nc(C(C)=NOCC2(CON=C(C)c3cc(OC)cc(C)n3)CC2)c1 | 1.34^[a]
CCOC(=O)c1cccc(C(C)=NOCCCON=C(C)c2cccc(C(=O)OCC)n2)n1 | 4.06^[a]
CC(=NOCCCCON=C(C)c1cccc(C)n1)c1ccc2ccccc2c1 | 5.72^[a]
CC(=NOCC(C)(C)CON=C(C)c1ccc(C)c(C)n1)c1ccc(C)c(C)n1 | 3.81^[a]
CC(=NOCC(C)CON=C(C)c1cc(C2CC2)cc(C)n1)c1cc(Cl)cc(C)n1 (stereo not drawn) | 5.23^[a]

====

# experimentNotes: logP determination by HPLC on a reversed-phase column (C 18), EEC Directive 79/831 Annex V.A8
# Assay type: physicochemical
# experimentalSetup: value marked [a]
logP reference
measureName: logP

compound | reading
CC(=NOCC(C)(C)CON=C(C)c1cc(C2CC2)cc(C)n1)c1cc(C2CC2)cc(C)n1 [Compound 817] | 3.27^[a]
CCCC(=NOCC(C)(C)CON=C(CCC)c1cccc(C)n1)c1cccc(C)n1 [Compound 279] | 7.25^[a]
CC[Si](CC)(CON=C(C)c1cc(C)cc(C)n1)CON=C(C)c1cc(C)cc(C)n1 [Compound 787] | 5.05^[a]
CC(=NOCCCON=C(C)c1cc(C)n(C)n1)c1cc(C)n(C)n1 [compound 259] | 2.70^[a]
CC(=NOCC(C)(C)CON=C(C)c1ccc2c(n1)CCC2)c1ccc2c(n1)CCC2 [Compound 301] | 4.78^[a]
CC(=NOCC(C)CON=C(C)c1cc(C(F)(F)F)cc(C)n1)c1cc(C(F)(F)F)cc(C)n1 (centres unmarked) [compound 869] | 7.36^[a]
C=C(CON=C(Cl)c1cc(C)cc(C)n1)CON=C(Cl)c1cc(C)cc(C)n1 [compound 795] | 4.62^[a]
CC(=NOCCCON=C(C)c1ccc2c(n1)CCC2)c1ccc2c(n1)CCC2 [Compound 302] | 3.28^[a]

====

# experimentNotes: logP determination by HPLC on a reversed-phase column (C 18), EEC Directive 79/831 Annex V.A8
# Format: physicochemical
# experimentalSetup: method marker [b]; isomer A / isomer B / isomer mixture as noted in the cell
# Method: The stated logP values were determined in accordance with EEC Directive 79/831 Annex V.A8 by HPLC (high performance liquid chromatography) on a reversed-phase column (C 18). Temperature: 43° C.
measureName: logP

compound | reading
C=C(CON=C(C)c1cccc(C)n1)CON=C(CC)c1ncccc1C (single isomer, unassigned) [compound 142] | 3.84^[b] (isomer )B
C=C(CON=C(C)c1ccc(Br)nc1)CON=C(C)c1cccc(C)n1 [compound 208] | 4.08^[b]
C=C(CON=C(N)c1cc(C)cc(C)c1)CON=C(C)c1cccc(C)n1 [compound 185] | 3.17^[b]
Cc1cc(C)nc(/C(N)=N/OCC(C)CO/N=C(\N)c2nc(C)cc(C)n2)n1 (stereo not shown) [Compound 10] | 1.81^[b]
